System: M14
Test: NCI tumour cell line growth inhibition, 48 h
Active and inactive are the calls of the source. Rule as the data show it: active = GI50 up to about 1.1 µM and inactive = higher.
Each record here notes measured GI50.

COMPOUND	GI50
COc1ccc(N2C(=O)C3ON(Cc4ccc(CC(N)=O)cc4)C(c4c5ccccc5c(C)c5ccccc45)C3C2=O)cc1 (stereo not drawn)	24.3 µM (inactive)
O=c1c2ccccc2n2nnc3ccc(NCCNCCO)c1c32	1.91 µM (inactive)
Cc1oc(N)c(S(=O)(=O)/C(C#N)=C/c2ccccc2[N+](=O)[O-])c1C	18.5 µM (inactive)

###

System: NCI-H522
Assay: NCI tumour cell line growth inhibition, 48 h
The source made the active and inactive calls. Rule as the data show it: active = GI50 up to about 1.1 µM and inactive = higher.
Outcomes: label 1 = active, label 0 = inactive

COMPOUND	TARGET OR SYSTEM	CAT
COc1ccc(C(=O)/C=C/c2cc(O)c(O)c(F)c2F)c(OC)c1	NCI-H522	label 0
Cc1ccc2cc3c(ccc4ccccc43)c3c2c1CC3 [3-METHYLCHOLANTHRENE]	NCI-H522	label 0
O=C1C=Cc2c(I)sc(I)c21	NCI-H522	label 0
CC1=CC(C)(C)N=C2SC(c3ccc(Cl)cc3)=NN12	NCI-H522	label 0
Cc1c2ccncc2c(C)c2c1[nH]c1ccc(O)c(OCC(F)(F)F)c12	NCI-H522	label 0
COc1cc2c(c(OC)c1OC)-c1ccc(SC)c(=O)cc1[C@@H](NC(=O)c1ccc(OC(C)=O)cc1)CC2	NCI-H522	label 1
O=C(O)/C(=C\c1ccc(O)cc1)c1cccc2ccccc12	NCI-H522	label 0
O=C(c1c(F)c(F)c(F)c(F)c1F)N1CCN(C(=O)c2c(F)c(F)c(F)c(F)c2F)C1=S	NCI-H522	label 1
CCn1c2ccccc2c2nnc(NCCCO)nc21	NCI-H522	label 0
O=C(CCc1nnc2s/c(=C\c3ccc([N+](=O)[O-])cc3)c(=O)n12)Nc1ccc(Cl)c(Cl)c1	NCI-H522	label 0

###

Test system: COLO 205
Assay: NCI tumour cell line growth inhibition, 48 h
Active and inactive are the calls of the source. Cut-off read from the data, not from the text of the source: active = GI50 up to about 1.1 µM and inactive = higher.
Each record here notes measured GI50.

COMPOUND	GI50
N#Cc1cnsc1	> 100 µM (inactive)
O=c1oc2c/c(=C\c3ccccc3)c(=O)c3cccc1c3-2	37.3 µM (inactive)
N#CNC(=N)NC(=O)/C=C/C=C/c1ccc(Cl)cc1	> 100 µM (inactive)
Cn1c(=O)nc2n(-c3ccc(O)cc3)c3ccccc3nc-2c1=O	23.9 µM (inactive)
CN(C)CC(O)c1ccc(Cl)c2ccccc12 (configuration not stated)	20.6 µM (inactive)
C=CCN1C(=O)C[C@H](Cc2ccccc2)NC(=O)C[C@H](Cc2ccccc2)N(CC=C)C(=O)C[C@H](Cc2ccccc2)NC(=O)C[C@@H]1Cc1ccccc1	2.3 µM (inactive)
CC(C)OC(=O)/C=C/C(=O)O/C=C/[N+](=O)[O-]	16.6 µM (inactive)
O=S1(=O)OCCOS(=O)(=O)C1F	> 100 µM (inactive)
c1ccc(C2=Nc3nc4ccccc4n3C(c3ccccc3)C2)cc1 (configuration not stated)	> 100 µM (inactive)
C#CCN(C)C(=O)N(CC#C)N=O	> 100 µM (inactive)
CCC1(CC)N=C(C(F)(F)F)c2cc(C(=O)C(F)(F)F)c3ccccc3c2N1	14 µM (inactive)
CCOC(=O)CC1NC(=O)CS1 (configuration not stated)	4.39 µM (inactive)

###

Test system: DLD-1
Assay: NCI tumour cell line growth inhibition, 48 h
Active and inactive are the calls of the source. Cut-off read from the data, not from the text of the source: active = GI50 up to about 1.1 µM and inactive = higher.
Outcomes: y for active, n for inactive

COMPOUND	CAT
CCC(C)(C)NC1=C(NC(C)=O)C(=O)c2ccccc2C1=O	n
COC(=O)N/N=C(\C)C(CN(C)C)C(c1ccccc1)c1c(O)c2ccccc2oc1=O (centres undefined)	n
CC1=CC(C)(C)N=C2SC(c3ccc(Cl)cc3)=NN12	n
O=C(C/C(CCC(=O)N(Cc1ccccc1)Cc1ccccc1)=N/Nc1ccc([N+](=O)[O-])cc1[N+](=O)[O-])c1ccccc1	n
CC12CC[C@@H](C(C)(C)O)C1[C@@H](O)CC1(C)C2CCC2[C@@]3(C)CC[C@H](O)C(C)(C)C3C(O)C[C@]21C (some centres undefined)	n
CCOC(=O)CCn1[nH]c(=O)c(Cl)c(Cl)c1=O	n
COC(=O)C1CCC2(CC1)NC(=O)NC2=O (centres undefined)	n
O=C(Nc1cccc(NC(=O)c2cc(=O)c3ccccc3o2)n1)c1cc(=O)c2ccccc2o1	n
Cc1c2ccncc2c(C)c2c1[nH]c1ccc(O)c(OCC(F)(F)F)c12	n
CC(C)CC/N=c1/cc2n(-c3ccc(Cl)cc3)c3ccccc3nc-2cc1Nc1ccc(Cl)cc1	n
CCc1cc(Cc2cc(CC)c(NC(=O)C3=CC(=O)CC(c4ccc(OC)cc4)O3)c(CC)c2Cl)c(Cl)c(CC)c1NC(=O)C1=CC(=O)CC(c2ccc(OC)cc2)O1 (centres undefined)	n
O=C(c1ccc2c3c(ccc(C(=O)C(F)(F)F)c13)CC2)C(F)(F)F	n
CCOC(=O)C(C)OC(=O)c1ccc(C)cc1 (centres undefined)	n
N#Cc1ccccc1Sc1ccccc1N	n
O=C(CCc1n[nH]c(=S)o1)Nc1ccc(Cl)cc1Cl	n
CS(=O)(=O)CSCSSCS(C)(=O)=O	n
CC(=O)O[C@H]1CCN2C(=O)C=CC(OCc3ccccc3)C12 (some centres undefined)	n
O=C(O)CCCCCCC[C@@H]1S[C@H]1CCCCCCO	n
NC(=O)c1cccc(C2OC(COP(=O)(O)O)C(O)C2O)c1 (centres undefined)	n
CN(C(=O)/C=C/c1ccccc1)C1C2CN3CCC(O2)C13 (centres undefined)	n
O=C(C#Cc1cnc(O)nc1O)c1ccccc1Cl	n
CC(C)(C)NNC(=O)CCn1[nH]c(=O)c(Cl)c(Cl)c1=O	n
CC(=O)O[C@H]1C(=O)[C@@]2(C)C(C(OC(=O)c3ccccc3)[C@]3(O)C[C@H](OC(=O)C(OC(=O)CCCC(=O)NCCCN(C)C)C(NC(=O)c4ccccc4)c4ccccc4)C(C)=C1C3(C)C)C1(OC(C)=O)COC1C[C@@H]2O (some centres undefined)	y
Cc1ccc(C(=O)NC(C)C)cc1/N=N/N(C)C	n
Cc1cc(N(CC(C)Br)CC(C)Br)ccc1/N=N/c1ccccc1C(=O)O (centres undefined)	n
CC1(C)OCC(C(O)C2OC(C)(C)OC2/C=N\O)O1 (centres undefined)	n
COc1cccc(NC(=O)C(=O)C(C(=O)c2ccccc2F)C2OC(=O)c3ccccc32)c1 (centres undefined)	n
CN(C)CCNC(=O)c1cccc2c1nc(-c1ccccc1)c1ccccc12	n
N#CC(/C(=N/NC(=O)C(=O)NN)C(=O)Nc1nc([N+](=O)[O-])cs1)c1ccc(Cl)cc1 (centres undefined)	n

###

Tested on: Hs-578T
Assay: NCI tumour cell line growth inhibition, 48 h
Calls of active or inactive are those of the source. Rule as the data show it: active = GI50 up to about 1.1 µM and inactive = higher.

MOLECULE	TARGET OR SYSTEM	GI50
CN(C)CCNC(=O)c1cccc2[nH]c(-c3ccncc3)nc12	Hs-578T	4.59 µM (inactive)
COc1cc(C2c3cc4c(cc3OC(N3CCOCC3)C2C)OCO4)cc(OC)c1OC(C)=O (stereo unspecified)	Hs-578T	2.2 µM (inactive)
COc1cc(CNc2ccc(SC)cc2)cc(OC)c1OC	Hs-578T	12.4 µM (inactive)
COc1nc(Cl)nc(N[C@H](C)c2c3ccccc3cc3ccccc23)n1	Hs-578T	7.69 µM (inactive)
Cc1c([N+](=O)[O-])ccc2c(NCCCN(C)C)ccnc12	Hs-578T	24 µM (inactive)
O=C1C(SCCO)=C(SCCO)C(=O)c2ccccc21	Hs-578T	1.17 µM (inactive)

###

Test system: SW-620
Assay: NCI tumour cell line growth inhibition, 48 h
Active and inactive are the calls of the source. Rule as the data show it: active = GI50 up to about 1.1 µM and inactive = higher.
Each record here notes measured GI50.
MEASURED QUANTITY: GI50

COMPOUND	MEASURED QUANTITY	VALUE OBSERVED
O=C(O)C(CS)NCc1c2ccccc2[n+]([O-])c2ccccc12 (stereo not given)	GI50	27.4 µM (inactive)
C=C([C@@]1(O)C[C@H]2[C@H](CCC2(OC)OC)[C@@H]2c3ccccc3O[C@@H]21)[Si](C)(C)C	GI50	> 100 µM (inactive)
Nc1nc(N)c2ncn(-c3ccc(Br)cc3)c2n1	GI50	45.9 µM (inactive)
O=C1NC(O)c2cc3ccccc3cc2O1 (stereo not given)	GI50	61.1 µM (inactive)
COc1ccc(N2C(=O)C3ON(Cc4ccc(CC(N)=O)cc4)C(c4c5ccccc5c(C)c5ccccc45)C3C2=O)cc1 (stereo not given)	GI50	25.9 µM (inactive)

###

Each record here notes measured GI50.
Test system: SNB-19
Assay: NCI tumour cell line growth inhibition, 48 h
Active and inactive are the calls of the source. No stated cut-off is given here; in the data, active = GI50 up to about 1.1 µM and inactive = higher.
MEASURED QUANTITY: GI50

COMPOUND	VALUE OBSERVED
CC/C=C\C=C/C(=O)N/C=C/CCC	> 100 µM (inactive)
Cn1c(=O)nc2n(-c3ccc(O)cc3)c3ccccc3nc-2c1=O	> 100 µM (inactive)
COc1ccc(-c2cc(-c3ccco3)c(C#N)c(=O)[nH]2)cc1	> 100 µM (inactive)
COc1ccc2c(c1)CCN1CCCc3ccccc3C21 (centres undefined)	94.6 µM (inactive)
CCN1CCN(c2nc3ccccc3c3c2CCOc2ccccc2-3)CC1	39.1 µM (inactive)
Cc1nc2c(sc(=S)n2-c2ccccc2)c2nc3ncccc3n12	54.5 µM (inactive)
Nc1ccc(-c2nc3ccc(F)cc3s2)cc1	32.8 µM (inactive)
CCCCCCCCCCCCCCC(O)C1CCC(C(O)CCC(O)CCCCCC(O)CC2=CC(C)OC2=O)O1 (centres undefined)	1.81 µM (inactive)
O=c1[nH]nc(Cc2ccccc2)n1/N=C\CC/C=N\n1c(Cc2ccccc2)n[nH]c1=O	42.9 µM (inactive)
Cc1cc(Cc2cc(C)c(N)cc2N)c(N)cc1N	> 100 µM (inactive)
C=C(C(=O)O)C1CCC(CC/C=C(\C)CC/C=C(\C)CCC=C(C)C)CO1 (centres undefined)	13.6 µM (inactive)
CC1=CC(C)(C)N=C2SC(c3ccc(Cl)cc3)=NN12	50.1 µM (inactive)
CN(C(=O)C1=CCC2(CC1)OCCO2)c1ccccc1OS(=O)(=O)C(F)(F)F	> 100 µM (inactive)
Cc1ccc(S(=O)(=O)c2ccccn2)cc1	> 100 µM (inactive)
Oc1ccc(O)c(-n2cccn2)c1	> 100 µM (inactive)
CCC1(CC)N=C(C(F)(F)F)c2cc(C(=O)C(F)(F)F)c3ccccc3c2N1	5.15 µM (inactive)
CC/C(=C\c1ccc(OC)cc1)c1ccc(OC)cc1	> 100 µM (inactive)
CCC1(C)NC(c2cnccn2)=NN1c1ccc(Cl)cc1 (centres undefined)	> 100 µM (inactive)
CC1(C)C2CC3C(C)(C2)C31c1cc(Cl)ccc1N (centres undefined)	18.9 µM (inactive)
CC(C)NC(NC(C)C)=C(S(=O)(=O)C(F)(F)C(F)(F)C(F)(F)C(F)(F)F)S(=O)(=O)C(F)(F)C(F)(F)C(F)(F)C(F)(F)F	> 100 µM (inactive)
O=C(C#Cc1cnc(O)nc1O)c1ccccc1Cl	52.6 µM (inactive)
O=C(O)c1cc(-c2ccccc2O)nc2ccccc12	> 100 µM (inactive)
O=C1/C(=C/c2cccc(Cl)c2)CCCc2ccccc21	14.9 µM (inactive)
COC(=O)c1ccc2cc(O)ccc2c1	79.8 µM (inactive)
